B1: ZNF193 (parent)
chain: QKRYHCKECGKVFSQSAGLIQHQR

Variants of: B1
Test: protein stability index of a GFP-peptide fusion (GPS, HEK-293T) (PSI 1-6); higher = more stable;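 further: lentivirally expressed fusions sorted by FACS into six bins by GFP to DsRed ratio, PSI derived from sequencing read proportions per bin multiplied by bin number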
Details: c terminus: a fixed tail appended
Reported protein stability index values are given for each entry in this list.
Lab note: record the figure alone, no unit after it.

Reference set (2 entries):
changes | assay_endpoint | recorded_measurement
C9L | protein stability index | 2.52
A17C | protein stability index | 2.45

According to the records, this variant `K2G` displays protein stability index of 3.31

According to the records, this variant `I20Y` displays protein stability index of 2.98
